Readings of inhibition for the listed compounds
- Subject Of Test: Transient receptor potential cation channel subfamily A member 1 (Homo sapiens, UniProt O75762)
- Sequence (O75762 whole entry): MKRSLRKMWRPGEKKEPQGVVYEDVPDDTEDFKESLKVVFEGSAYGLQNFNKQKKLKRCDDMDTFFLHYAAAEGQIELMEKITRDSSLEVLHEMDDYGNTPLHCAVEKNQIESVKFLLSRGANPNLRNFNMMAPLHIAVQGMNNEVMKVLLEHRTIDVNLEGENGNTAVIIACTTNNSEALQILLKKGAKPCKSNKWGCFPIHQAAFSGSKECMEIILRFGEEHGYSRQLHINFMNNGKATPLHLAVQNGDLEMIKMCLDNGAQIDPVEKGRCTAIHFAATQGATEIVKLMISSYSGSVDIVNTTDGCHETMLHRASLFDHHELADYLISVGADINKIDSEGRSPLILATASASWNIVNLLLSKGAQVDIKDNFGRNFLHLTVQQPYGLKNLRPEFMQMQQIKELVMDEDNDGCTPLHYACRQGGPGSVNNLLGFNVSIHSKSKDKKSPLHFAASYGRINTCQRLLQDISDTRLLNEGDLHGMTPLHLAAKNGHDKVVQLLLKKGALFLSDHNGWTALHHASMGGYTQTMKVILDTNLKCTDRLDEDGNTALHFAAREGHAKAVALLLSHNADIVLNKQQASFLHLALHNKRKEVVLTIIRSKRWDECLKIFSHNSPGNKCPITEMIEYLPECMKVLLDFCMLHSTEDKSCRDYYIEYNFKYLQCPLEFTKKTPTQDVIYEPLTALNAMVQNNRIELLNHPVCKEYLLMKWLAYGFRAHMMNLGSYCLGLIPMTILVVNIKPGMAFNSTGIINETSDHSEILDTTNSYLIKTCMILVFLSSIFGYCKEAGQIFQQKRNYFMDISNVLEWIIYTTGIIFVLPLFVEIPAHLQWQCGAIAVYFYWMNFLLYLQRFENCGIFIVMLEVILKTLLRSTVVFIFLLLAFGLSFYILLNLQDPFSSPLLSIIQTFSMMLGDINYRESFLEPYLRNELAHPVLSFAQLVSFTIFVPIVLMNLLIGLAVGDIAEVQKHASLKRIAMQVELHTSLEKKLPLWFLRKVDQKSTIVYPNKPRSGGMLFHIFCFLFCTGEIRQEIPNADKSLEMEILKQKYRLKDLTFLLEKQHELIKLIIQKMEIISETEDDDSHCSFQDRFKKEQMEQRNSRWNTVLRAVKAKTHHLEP
- Assay Info: Inhibition of human TRPA1 expressed in HEK293 cells assessed as decrease in AITC-induced calcium influx at 30 uM preincubated for 6 mins followed by AITC addition measured for 1 min by Fluo-4 dye-based assay relative to control
- Type: cell-based
The reply should read as a number followed by its unit.

Known inhibition results, listed for orientation:
{"columns": ["Compound", "inhibition"],
 "data": [
  ["Oc1ccc(/C=C/c2cc(O)cc(O)c2)cc1 [RESVERATROL]", "37.5%"],
  ["Oc1cccc(/C=C/c2cc(O)cc(O)c2)c1", "1.4%"],
  ["COc1ccc(NC(=O)c2cc(O)cc(O)c2)cc1", "11.8%"],
  ["Oc1ccc(/C=C/c2cc(Br)c(O)c(Br)c2)cc1", "66.7%"],
  ["Oc1cc(O)cc(/C=C/c2ccc(Cl)cc2)c1", "18.6%"],
  ["Clc1cc(Cl)cc(/C=C/c2ccccc2)c1", "8.4%"],
  ["Clc1ccc(/C=C/c2cc(Cl)cc(Cl)c2)cc1", "20.6%"]
]}

Then there is this compound:
-- ask Item under review: Oc1ccccc1/C=C/c1ccccc1 . Reported inhibition?
-- reply -9.5%
